Ref: PubChem BioAssay (NCI)

System: U251 CNS
test: NCI-60 one-dose screen, 48 h (100 = growth as untreated, 0 = no growth, -100 = all killed)
setupConditions: 10 µM unless noted
This is part of a sample that, as a whole, favours compounds with a hit. Of some 83,000 tested, about 20% had one in any assay.
Cut-off 30% on growth, inclusive. At or above means rule met; below means rule not met.

Consider the following illustrative entries.
INSERT INTO assay_data (compound, tgt, class) VALUES
  ('CC(=O)Nc1c(Br)cc2c(c1Br)Cc1cc(Br)ccc1-2', 'U251 CNS', 'rule not met'),
  ('NC(=O)N/N=C\c1ccc([N+](=O)[O-])o1', 'U251 CNS', 'rule met');

Prompt: Evaluate C=C1C(=O)O[C@H]2[C@H]1CC/C(COC(=O)NCc1c[nH]c3ccc(OC)cc13)=C\CC[C@@]1(C)O[C@@H]21 : growth at minimum 30%?
Completion: rule not met

Prompt: Evaluate C=CCN1C(=O)/C(=c2\sc3n(c2=O)C2C(NN=3)N(CC)C(=O)N2CC)c2ccccc21 (stereo not given) : growth at minimum 30%?
Completion: rule not met

Prompt: Evaluate COc1cc(C2CC(c3cccc(Nc4ccnc5cc(Cl)ccc45)c3)=NN2C=O)cc(OC)c1OC (stereo not given) : growth at minimum 30%?
Completion: rule not met

Prompt: Evaluate N=c1nc(N2CCCCC2)cc(N)n1O : growth at minimum 30%?
Completion: rule met

Prompt: Evaluate NC(=O)c1ccc[n+](Cc2ccccc2)c1 : growth at minimum 30%?
Completion: rule met

Prompt: Evaluate Cc1ccc(NC(=O)c2sc3nc4c(cc3c2N)C(=O)CCC4)cc1Cl : growth at minimum 30%?
Completion: rule met

Prompt: Evaluate COc1ccc(NC(=O)c2sc3c(=O)[nH]c(C(F)(F)F)nc3c2C)cc1 : growth at minimum 30%?
Completion: rule met

Prompt: Evaluate COc1ccc(-c2cc(C(=O)Nc3ccc(Br)cc3)nc3[nH]c(=O)sc23)cc1 : growth at minimum 30%?
Completion: rule not met

====

System: SK-MEL-28 melanoma
test: NCI-60 one-dose screen, 48 h (100 = growth as untreated, 0 = no growth, -100 = all killed)
setupConditions: 10 µM unless noted
The panel holds about 83,000 compounds, 20% with a hit somewhere; the sample as a whole holds those more often. Activity calls are given as the source filed them. Rule for the calls: active = growth percent below 10; inactive = the rest.
Collected growth values appear next to each entry.

Past entries and their recorded results:
INSERT INTO measurements (molecule, tgt, reportedendpoint, assayvalue) VALUES
  ('CN1C(=O)N(C)C2C1NN=c1s/c(=C\c3ccc(C(F)(F)F)cc3)c(=O)n12 (centres undefined)', 'SK-MEL-28 melanoma', 'growth', '60.4% (inactive)'),
  ('Cc1cc2nc(CN)[nH]c2cc1C', 'SK-MEL-28 melanoma', 'growth', '108% (inactive)'),
  ('CN(C)CCNC(=O)n1cc(-c2ccncc2)c(-c2cc(O)cc(Cl)c2)n1', 'SK-MEL-28 melanoma', 'growth', '35.2% (inactive)'),
  ('COC(=O)c1ccc2c(c1)nc(-c1cc3ccccc3[nH]c1=O)n2-c1cc(C(C)(C)C)[nH]n1', 'SK-MEL-28 melanoma', 'growth', '84.1% (inactive)'),
  ('COc1cccc(-c2cc(-c3cccs3)c(C#N)c(=O)[nH]2)c1', 'SK-MEL-28 melanoma', 'growth', '115% (inactive)');

Prompt: Item under review: NC(=S)N1N=C(c2ccc(Cl)cc2)CC1c1cc2ccccc2[nH]c1=O (centres undefined) . Reported growth?
Completion: 115% (inactive)

Prompt: Item under review: C[N+](C)(C)CC(=O)N/N=C\c1ccco1 . Reported growth?
Completion: 105% (inactive)

Prompt: Item under review: C=C(C)[C@@H]1CC[C@]2(C(=O)NC(COC(=O)C(Cl)Cl)(COC(=O)C(Cl)Cl)COC(=O)C(Cl)Cl)CC[C@]3(C)[C@H](CC[C@@H]4[C@@]5(C)CC[C@H](OC(C)=O)C(C)(C)[C@@H]5CC[C@]43C)[C@@H]12 . Reported growth?
Completion: 86.9% (inactive)

Prompt: Item under review: COc1cc2c(=O)n(CCCN(C)C)c3c4cc[nH]c4ncc3c2cc1OC . Reported growth?
Completion: 89.9% (inactive)
